Examples of molecules with documented pIC50 follow.
- tested_on: His-tagged recombinant human TrkA (Homo sapiens, UniProt P04629)
- Construct: 6HIS tagged cytoplasmic domain from Invitrogen, Catalog No. PV3144; purchased Invitrogen PV3144
- Sequence (P04629 440-796 limits assumed): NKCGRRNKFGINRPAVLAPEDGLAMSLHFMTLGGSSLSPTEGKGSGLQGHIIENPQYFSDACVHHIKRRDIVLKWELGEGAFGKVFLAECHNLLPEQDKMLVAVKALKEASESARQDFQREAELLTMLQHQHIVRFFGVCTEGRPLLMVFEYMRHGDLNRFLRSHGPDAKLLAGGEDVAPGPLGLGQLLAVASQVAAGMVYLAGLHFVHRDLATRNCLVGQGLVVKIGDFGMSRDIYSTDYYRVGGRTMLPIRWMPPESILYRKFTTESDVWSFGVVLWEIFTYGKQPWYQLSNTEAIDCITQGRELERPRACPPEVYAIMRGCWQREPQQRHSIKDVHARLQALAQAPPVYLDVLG
- procedure_text: TrkA Kinase Binding Assay (LanthaScreen Eu)
- condition_info: averaged IC50; TR-FRET binding, 60 min, 22° C.; read-out: TrkA Enzyme IC50
pIC50: −log10 of the molar value.

query: Determine its reported pIC50: COCc1ccc(OC(F)(F)F)c(CNC(=O)Nc2c(C)c(O[C@@H]3CCNC3)nn2-c2ccccc2)c1
result: > 7.00

query: Give the reported pIC50 for this molecule. CCOc1ccc(C2CC2)c(CNC(=O)Nc2c(C)c(-c3cnn(C)c3)nn2-c2ccccc2)c1
result: > 7.00

query: Answer with reported pIC50 of COCc1ccc(OC(F)(F)F)c(CNC(=O)Nc2c(C)c(OC3CC4(CNC4)C3)nn2-c2ccccc2)c1
result: > 7.00

query: Return pIC50 for the following molecule: COCc1ccc(C2(OC)CCC2)c(CNC(=O)Nc2c(C)c(-c3ccc(C)nc3)nn2-c2ccccc2)c1
result: 6.00 to 7.00

query: Supply reported pIC50 belonging to this molecule: Cc1c(-c2cnn(C)c2)nn(-c2ccccc2)c1NC(=O)NCc1ccccc1-c1ccccc1
result: 6.00 to 7.00

query: Supply recorded pIC50 for COCc1ccc(C2CC2(F)F)c(CNC(=O)Nc2c(C)c(-c3cnn(C)c3)nn2-c2ccccc2)c1 (stereo not drawn) [Example 25, 2,2,2-trifluoroacetate] here.
result: > 7.00

query: # return recorded pIC50 for input Cc1c(-c2cnn(C)c2)nn(-c2ccccc2)c1NC(=O)NCc1ccncc1C1CCC1
result: 6.00 to 7.00

query: Output pIC50 of COCc1ccc(OC(F)(F)F)c(CNC(=O)Nc2c3c(nn2-c2ccccc2)CS(=O)(=O)C3)c1
result: > 7.00

query: Return pIC50 (reported value) for this molecule: COCc1ccc(OCC(F)(F)F)c(CNC(=O)Nc2c(C)c(-c3cnc(OC)nc3)nn2-c2ccccc2)c1
result: > 7.00

query: Please indicate pIC50 recorded for COCc1ccc(OC(F)F)c(CNC(=O)Nc2c(C)c(OCC3CCN(C)C3)nn2-c2ccccc2)c1 (stereo not drawn)
result: > 7.00

query: Using known records, supply pIC50 for COCc1ccc(OC2CCC2)c(CNC(=O)Nc2c(C)c(-c3cnn(C)c3)nn2-c2ccccc2)c1
result: 6.00 to 7.00

query: Fill in reported pIC50 for this entry: CCOc1ccc(COC)cc1CNC(=O)Nc1c(C)c(-c2cnn(C)c2)nn1-c1ccccc1
result: > 7.00

query: Specify measured pIC50 for COCc1ccc(OC(F)(F)F)c(CNC(=O)Nc2c(C)c(OC[C@H]3CCN3)nn2-c2ccccc2)c1 .
result: > 7.00

query: Recall and state the measured pIC50 for COCc1ccc(OC(F)(F)F)c(CNC(=O)Nc2c(C)c(OC[C@@H](C)N)nn2-c2ccccc2)c1 .
result: > 7.00

query: Consider the molecule CSCc1ccc(C2CCC2)c(CNC(=O)Nc2c(C)c(-c3cnn(C)c3)nn2-c2ccccc2)c1 and give its recorded pIC50.
result: > 7.00

###

- tested_on: His-tagged recombinant human TrkA (Homo sapiens)
- Construct: 6HIS tagged cytoplasmic domain from Invitrogen, Catalog No. PV3144
- procedure_text: TrkA Kinase Binding Assay (LanthaScreen Eu)
- condition_info: averaged IC50; TR-FRET binding, 60 min, 22° C.; read-out: TrkA Enzyme IC50
property_measured: IC50

Completed entries (count: 3):
query: Please supply the value of reported IC50 for the item COCc1ccc(OC(F)(F)F)c(CNC(=O)Nc2c(C)c(O[C@@H]3CCN(C)C[C@H]3F)nn2-c2ccccc2)c1
result: < 100 nM

query: Identify measured IC50 corresponding to COCc1ccc(OC(F)(F)F)c(CNC(=O)Nc2c(C)c(O[C@@H]3CCN(C)C3)nn2-c2ccccc2)c1
result: < 100 nM

query: Please report IC50 for the following compound: CCSc1ccc(C2CCC2)c(CNC(=O)Nc2c(C)c(-c3cnn(C)c3)nn2-c2ccccc2)c1
result: 100 to 1000 nM

Could you now look at the following compound, please?
query: Return IC50 (reported value) for this compound: COCc1ccc(OC(F)(F)F)c(CNC(=O)Nc2c(C)c(OCC3CCNCC3)nn2-c2ccccc2)c1
result: < 100 nM
